molecular target: FGFR1 (UniProt P11362); test: phosphorylation enrichment, bacterial display (enrichment ratio); higher = better substrate or ligand; peptides without Tyr show the background
Sequence (P11362 whole entry, looked up): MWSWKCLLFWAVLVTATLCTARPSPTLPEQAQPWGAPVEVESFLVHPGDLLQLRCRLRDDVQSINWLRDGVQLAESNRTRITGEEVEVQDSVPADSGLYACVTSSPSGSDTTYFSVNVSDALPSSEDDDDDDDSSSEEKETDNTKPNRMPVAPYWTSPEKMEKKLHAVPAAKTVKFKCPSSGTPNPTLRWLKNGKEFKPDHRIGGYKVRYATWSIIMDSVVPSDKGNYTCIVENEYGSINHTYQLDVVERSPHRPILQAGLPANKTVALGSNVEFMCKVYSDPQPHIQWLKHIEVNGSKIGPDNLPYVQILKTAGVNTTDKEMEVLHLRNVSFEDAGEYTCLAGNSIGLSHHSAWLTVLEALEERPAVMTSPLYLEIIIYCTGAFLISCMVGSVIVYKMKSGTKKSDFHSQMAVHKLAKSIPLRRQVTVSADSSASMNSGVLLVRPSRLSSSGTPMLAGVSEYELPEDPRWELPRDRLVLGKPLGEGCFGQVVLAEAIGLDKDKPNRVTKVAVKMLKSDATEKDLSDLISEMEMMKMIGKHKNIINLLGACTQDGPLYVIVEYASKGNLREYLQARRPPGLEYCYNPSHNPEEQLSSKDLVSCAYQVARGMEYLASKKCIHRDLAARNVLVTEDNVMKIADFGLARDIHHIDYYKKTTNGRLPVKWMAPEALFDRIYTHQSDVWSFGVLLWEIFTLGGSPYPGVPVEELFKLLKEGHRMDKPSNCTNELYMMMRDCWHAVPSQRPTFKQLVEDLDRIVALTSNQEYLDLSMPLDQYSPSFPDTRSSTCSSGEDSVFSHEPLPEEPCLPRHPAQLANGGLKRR
Entries and their phosphorylation enrichment
Quantity kind: phosphorylation enrichment

>  <Sequence entry>
VSFDEYRFRSF [CFTR_Y515_V520F_YF]

>  <Observed measurement>
0.514

$$$$
>  <Sequence entry>
LLSVAYKNVVG [YWHAG_Y49]

>  <Observed measurement>
0.589

$$$$
>  <Sequence entry>
SRDTRYLVLAV [AMH_Y195]

>  <Observed measurement>
0.543

$$$$
>  <Sequence entry>
TLNVRYESVQA [CEACAM7_Y236]

>  <Observed measurement>
0.451

$$$$
>  <Sequence entry>
HLELNYKEDEY [MME_Y502_Y497H]

>  <Observed measurement>
0.487

$$$$
>  <Sequence entry>
PTTKTYFPHFD [HBA1_Y43]

>  <Observed measurement>
0.595

$$$$
>  <Sequence entry>
MKGDFYRSLAE [YWHAG_Y131_Y133S_YF]

>  <Observed measurement>
0.422

$$$$
>  <Sequence entry>
VHLYAYDWISI [BEST1_Y227_G222V]

>  <Observed measurement>
5.73

$$$$
>  <Sequence entry>
HSKGIYFVQLE [MGAT4B_Y262_Q257H_YF]

>  <Observed measurement>
1.38

$$$$

----------
molecular target: SHP2-C SH2; assay: SH2 binding enrichment of the phosphorylated peptide, bacterial display (enrichment ratio); higher = better substrate or ligand; peptides without Tyr show the background;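 also: peptide library displayed on the E. coli surface as eCPX fusions, selected cells deep-sequenced, score is each peptide's frequency after selection divided by its frequency in the input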
Rule: SH2 binding enrichment of 0.7 or more gives 1.0; anything lower gives 0.0.

>  <Sequence entry>
SVVVPCEPPEV [TP53_Y220_Y220C]

>  <Class name>
1.0

$$$$
>  <Sequence entry>
SSVPDYLAAVD [GLB1_Y154_D151V]

>  <Class name>
1.0

$$$$
>  <Sequence entry>
LEAVSYSSPFA [RNLS_Y190_R193P_YF]

>  <Class name>
1.0

$$$$
>  <Sequence entry>
AGLVQYFMEHH [PTPN11_Y80_E76G_YF]

>  <Class name>
1.0

$$$$
>  <Sequence entry>
HNLFSYPTKFE [MYO3A_Y1396_H1400Y_YF]

>  <Class name>
1.0

$$$$
>  <Sequence entry>
YCRIMYDIFPF [INTS13_Y67]

>  <Class name>
1.0

$$$$
>  <Sequence entry>
NDHHFYLEGTL [ALDOB_Y223_V222F]

>  <Class name>
1.0

$$$$
>  <Sequence entry>
GNLLIYTEFGK [HGD_Y166]

>  <Class name>
0.0

$$$$
>  <Sequence entry>
TGYRPYVCPFD [YY1_Y383_D380Y]

>  <Class name>
0.0

$$$$
>  <Sequence entry>
ADRNHYRRYPR [YBX1_Y145]

>  <Class name>
0.0

$$$$
>  <Sequence entry>
SNKLHYQLEQE [PDPR_Y110_Y109H]

>  <Class name>
1.0

$$$$
>  <Sequence entry>
FENGEYIIRQG [PRKG1_Y247_YF]

>  <Class name>
0.0

$$$$
>  <Sequence entry>
WASSSYRETPS [SORBS1_Y79_R74W]

>  <Class name>
1.0

$$$$

----------
target: Fes (UniProt P07332); assay: phosphorylation enrichment, bacterial display (enrichment ratio); higher = better substrate or ligand; peptides without Tyr show the background
Sequence (P07332 whole entry, looked up): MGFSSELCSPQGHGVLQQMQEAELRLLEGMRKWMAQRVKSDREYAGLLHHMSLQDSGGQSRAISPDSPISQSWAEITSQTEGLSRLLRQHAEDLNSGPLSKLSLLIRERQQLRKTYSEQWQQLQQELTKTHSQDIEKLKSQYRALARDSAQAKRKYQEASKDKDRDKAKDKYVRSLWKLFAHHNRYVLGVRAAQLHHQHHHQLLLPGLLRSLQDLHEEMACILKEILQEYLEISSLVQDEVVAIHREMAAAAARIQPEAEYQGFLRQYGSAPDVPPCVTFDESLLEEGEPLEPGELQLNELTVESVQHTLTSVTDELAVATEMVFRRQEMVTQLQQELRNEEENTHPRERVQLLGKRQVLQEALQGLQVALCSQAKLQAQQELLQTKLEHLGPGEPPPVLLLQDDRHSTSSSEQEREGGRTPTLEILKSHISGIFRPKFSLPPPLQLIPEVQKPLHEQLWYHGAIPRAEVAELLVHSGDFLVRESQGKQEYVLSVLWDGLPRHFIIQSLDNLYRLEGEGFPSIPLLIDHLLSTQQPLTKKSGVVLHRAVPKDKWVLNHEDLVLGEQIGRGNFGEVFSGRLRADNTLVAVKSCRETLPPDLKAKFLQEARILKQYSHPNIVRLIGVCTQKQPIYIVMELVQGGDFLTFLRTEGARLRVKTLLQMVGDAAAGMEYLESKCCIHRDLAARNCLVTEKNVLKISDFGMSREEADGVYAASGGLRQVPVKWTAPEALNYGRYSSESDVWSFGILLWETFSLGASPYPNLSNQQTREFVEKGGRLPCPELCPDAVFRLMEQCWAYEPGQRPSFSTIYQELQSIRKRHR
Consider the following sequences and their measured phosphorylation enrichment readings.

>  <Sequence entry>
PELINYHQHYS [BTK_Y361_N365Y]

>  <Measurement target>
Fes (UniProt P07332)

>  <phosphorylation enrichment>
0.688

$$$$
>  <Sequence entry>
FIGRIYLFLTK [GARS1_Y414_YF]

>  <Measurement target>
Fes (UniProt P07332)

>  <phosphorylation enrichment>
1.45

$$$$
>  <Sequence entry>
SHKELYKWFTS [DYNC1H1_Y3051_E3048K]

>  <Measurement target>
Fes (UniProt P07332)

>  <phosphorylation enrichment>
0.812

$$$$
>  <Sequence entry>
RLQAAYNLVKR [PFKM_Y103_R100Q]

>  <Measurement target>
Fes (UniProt P07332)

>  <phosphorylation enrichment>
1.19

$$$$
>  <Sequence entry>
SRLDSYVRSLP [TRAPPC1_Y133]

>  <Measurement target>
Fes (UniProt P07332)

>  <phosphorylation enrichment>
0.666

$$$$
>  <Sequence entry>
HVIKFYGACSQ [RET_Y791_L790F]

>  <Measurement target>
Fes (UniProt P07332)

>  <phosphorylation enrichment>
1.75

$$$$
>  <Sequence entry>
RGRKVYLEDGF [PRIM2_Y201]

>  <Measurement target>
Fes (UniProt P07332)

>  <phosphorylation enrichment>
0.911

$$$$
>  <Sequence entry>
CDYKKYGKGLR [ZNF445_Y433_Y428C]

>  <Measurement target>
Fes (UniProt P07332)

>  <phosphorylation enrichment>
0.576

$$$$
>  <Sequence entry>
LTSKPYAFTAW [NDUFS1_Y236_R241W]

>  <Measurement target>
Fes (UniProt P07332)

>  <phosphorylation enrichment>
0.717

$$$$
>  <Sequence entry>
FIRKDYEACKA [BBS4_Y48_YF]

>  <Measurement target>
Fes (UniProt P07332)

>  <phosphorylation enrichment>
0.865

$$$$

----------
Parameter: phosphorylation enrichment. Scope: all listed entries.
test system: c-Abl (mouse); assay: phosphorylation enrichment, bacterial display (enrichment ratio); higher = better substrate or ligand; peptides without Tyr show the background
Quantity kind: phosphorylation enrichment

>  <Sequence entry>
HNLFSYPTKFE [MYO3A_Y1396_H1400Y_YF]

>  <Observed measurement>
0.881

$$$$
>  <Sequence entry>
EVEFQYPFRLH [SYP_Y73_E72Q]

>  <Observed measurement>
0.885

$$$$
>  <Sequence entry>
DAICFYRMENA [NPHS2_Y195_YF]

>  <Observed measurement>
0.914

$$$$

----------
tested on: c-Src; experiment: phosphorylation enrichment, bacterial display (enrichment ratio); higher = better substrate or ligand; peptides without Tyr show the background
Quantity kind: phosphorylation enrichment

>  <Sequence entry>
GREAEYSEKHG [EPHB4_Y574_D576E]

>  <Quantity kind>
phosphorylation enrichment

>  <Observed measurement>
0.396

$$$$
>  <Sequence entry>
RHTRSYDYMEG [FGF7_Y56]

>  <Quantity kind>
phosphorylation enrichment

>  <Observed measurement>
0.389

$$$$
>  <Sequence entry>
ALAQKYHGGGG [HBB_Y146_H144Q]

>  <Quantity kind>
phosphorylation enrichment

>  <Observed measurement>
0.404

$$$$
>  <Sequence entry>
ALRHFYKLNII [ETV6_Y402_YF]

>  <Quantity kind>
phosphorylation enrichment

>  <Observed measurement>
0.439

$$$$
>  <Sequence entry>
NARGLYYKLHN [GATA2_Y376_C373R]

>  <Quantity kind>
phosphorylation enrichment

>  <Observed measurement>
0.695

$$$$
>  <Sequence entry>
NAMRRHIEEFQ [MNS1_Y244_Y244H]

>  <Quantity kind>
phosphorylation enrichment

>  <Observed measurement>
0.347

$$$$
>  <Sequence entry>
MDNQEYKDAYT [BRDT_Y331_K336T]

>  <Quantity kind>
phosphorylation enrichment

>  <Observed measurement>
0.546

$$$$
>  <Sequence entry>
CTTIHYNFMCK [TP53_Y234_N239K_YF]

>  <Quantity kind>
phosphorylation enrichment

>  <Observed measurement>
0.413

$$$$

----------
test system: c-Src; experiment: phosphorylation enrichment, bacterial display (enrichment ratio); higher = better substrate or ligand; peptides without Tyr show the background

>  <Sequence entry>
WDLSEYSFKDP [ITGA3_Y237_YF]

>  <Measurement target>
c-Src

>  <phosphorylation enrichment>
2.11

$$$$
>  <Sequence entry>
PLGVPYLDKPP [JMJD7_Y31_A28G]

>  <Measurement target>
c-Src

>  <phosphorylation enrichment>
0.909

$$$$
>  <Sequence entry>
RAYRRYLLKQK [SCN2A_Y1919]

>  <Measurement target>
c-Src

>  <phosphorylation enrichment>
0.446

$$$$
>  <Sequence entry>
EFGFRYELVQY [UGGT2_Y1289_Y1285F]

>  <Measurement target>
c-Src

>  <phosphorylation enrichment>
0.393

$$$$
>  <Sequence entry>
EVEPTYVVLFD [ERCC4_Y577_R576T_YF]

>  <Measurement target>
c-Src

>  <phosphorylation enrichment>
5.25

$$$$
>  <Sequence entry>
GEEIKYMLWLS [OTC_Y55]

>  <Measurement target>
c-Src

>  <phosphorylation enrichment>
0.518

$$$$
>  <Sequence entry>
ERSMSYCDESR [SMG1_Y143_S144C]

>  <Measurement target>
c-Src

>  <phosphorylation enrichment>
0.491

$$$$
>  <Sequence entry>
KKLHEYNTQFQ [PIK3R1_Y452]

>  <Measurement target>
c-Src

>  <phosphorylation enrichment>
0.42

$$$$
>  <Sequence entry>
KLKEKYQKDIA [HMGB1_Y155_E156Q]

>  <Measurement target>
c-Src

>  <phosphorylation enrichment>
0.582

$$$$
>  <Sequence entry>
EILLSYPRTGF [TGM1_Y365_L366P_YF]

>  <Measurement target>
c-Src

>  <phosphorylation enrichment>
0.356

$$$$
>  <Sequence entry>
EQMLEYMGQLQ [CFAP45_Y289_E291G]

>  <Measurement target>
c-Src

>  <phosphorylation enrichment>
0.505

$$$$
>  <Sequence entry>
QLHREYCLSPR [HJURP_Y445]

>  <Measurement target>
c-Src

>  <phosphorylation enrichment>
1.34

$$$$
>  <Sequence entry>
RNIQQYNSFVS [PRKAR1A_Y373]

>  <Measurement target>
c-Src

>  <phosphorylation enrichment>
0.589

$$$$
>  <Sequence entry>
INASGYRVGPA [ACSM1_Y477_I479V]

>  <Measurement target>
c-Src

>  <phosphorylation enrichment>
0.51

$$$$
